Tested on: CTNNB1
assay.info: In vitro DMD assay: mRNA silencing enhancement by peptide conjugates after siRNA-IV treatment
Type: cell-based
experimental.parameters: Targeted peptide dose 200 nM; primary mouse hepatocytes; siRNA-IV 125 nM baseline
Where no end group is shown, it is not given here. TGN = not defined here
Lab note - cut at -0.2 for In vitro dddCt (vs. baseline SCE dose): class 1 if strictly below, class 0 if not.

Check out these entries, answers already filled in.
• TGN-S-S-Seq-ID-58 (D) (CRRQRRKKRGYGYWGDILGEWGNEIFGEIAEFLG; not fully specified; TGN disulfide conjugate; D-amino acids; listed as Homo sapiens) = class 1
• TGN-S-S-Seq-ID-54 (L) (C(TGN)FFGAIWEFIRSILEGLIDGWYGYGRKKRRQRR; reading uncertain; also: disulfide-linked to TGN peptide via Cys; listed as Homo sapiens) = class 0
• TGN-S-S-Seq-ID-57 (L) (C(TGN)GLFGALLELLESLWKGLLEWYGRKKRRQRR; reading uncertain; also: disulfide-linked to TGN peptide via Cys; listed as Homo sapiens) = class 0
• TGN-S-S-SEQ ID NO: 1712 (L): TGN-S-S-peptide; peptide CFLGALWKALSELLKNLIDWWNG (C(TGN)FLGALWKALSELLKNLIDWWNG; reading uncertain; also: TGN disulfide conjugate at Cys1; listed as Homo sapiens) = class 0

Lab note: In vitro dddCt (vs. baseline SCE dose) threshold -0.2. Does this substance come in strictly under it? TGN-S-S-Seq-ID-55 (L) (C(TGN)GLFHALLHLLHSLWHLLLHAWYGYGRKKRRQRR; reading uncertain; also: disulfide-linked to TGN peptide via Cys; listed as Homo sapiens)
class 0

----------
System: CTNNB1
assay.info: In vitro DMD assay: mRNA silencing enhancement by peptide conjugates after siRNA-IV treatment
Format: cell-based
experimental.parameters: Targeted peptide dose 8 nM; primary mouse hepatocytes; siRNA-IV 125 nM baseline
Where no end group is shown, it is not given here. [ ]: non-standard residue; d: D form. TGN = not defined here
result.type: In vitro dddCt (vs. baseline SCE dose)
Keep the answer to the number alone.

Can you share its In vitro dddCt (vs. baseline SCE dose)? I mean this substance: TGN-S-S-Seq-ID-58 (D) (CRRQRRKKRGYGYWGDILGEWGNEIFGEIAEFLG; not fully specified; TGN disulfide conjugate; D-amino acids; listed as Homo sapiens)
−0.05

Please answer likewise for TGN-S-S-Seq-ID-57 (L) (C(TGN)GLFGALLELLESLWKGLLEWYGRKKRRQRR; reading uncertain; also: disulfide-linked to TGN peptide via Cys; listed as Homo sapiens)
0.1

What do we get for TGN-S-S-Seq-ID-55 (L) (C(TGN)GLFHALLHLLHSLWHLLLHAWYGYGRKKRRQRR; reading uncertain; also: disulfide-linked to TGN peptide via Cys; listed as Homo sapiens) ?
0.11

Another substance to look at: TGN-S-S-Seq-ID-56 (L) (C(TGN)GLFHALLHLLHSLWHLLLHAWYGYGHKKHHQHR; reading uncertain; also: disulfide-linked to TGN peptide via Cys; listed as Homo sapiens)
0.02

Follow-up entry: TGN-S-S-Seq-ID-61 (D) (CRRQRRKKRGYGYWWDILGKWGNEIFGEIAEFLG; not fully specified; TGN disulfide conjugate; D-amino acids; listed as Homo sapiens)
0.13

Follow-up item: TGN-S-S-Seq-ID-37 (L) (C(TGN)IFGAIAGFIKNIWKGLIDWWYG; reading uncertain; also: disulfide-linked to TGN peptide via Cys; listed as Homo sapiens)
0.02

Next up: TGN-S-S-SEQ ID NO: 1712 (L): TGN-S-S-peptide; peptide CFLGALWKALSELLKNLIDWWNG (C(TGN)FLGALWKALSELLKNLIDWWNG; reading uncertain; also: TGN disulfide conjugate at Cys1; listed as Homo sapiens)
0.03

Same lookup for TGN-S-S-SEQ ID NO: 1746 (D): TGN-S-S-peptide; peptide CEALFGKINAIFIGKL ([dC][dE][dA][dL][dF]G[dK][dI][dN][dA][dI][dF][dI]G[dK][dL]; not fully specified (residue 1); also: disulfide to TGN peptide via Cys1; listed as Homo sapiens) , please.
−0.01

Value source: patent US10239957B2
